Target: 3-phosphoinositide-dependent protein kinase 1 (Homo sapiens);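 note: values are mean inhibition of PDK1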
Settings: at 0.1 µM
QUANTITY MEASURED: inhibition (%)

- Cc1nnc(-c2cccc(-c3ccc(C(=O)NCC4CC4)cc3)c2)o1: 2.18
- CN1CCC(n2cnc(-c3ccc(F)cc3)c2-c2ccnc(NCCO)n2)CC1: 1.23
- COC(=O)Nc1nc2ccc(Oc3ccc(NC(=O)Nc4cc(C(F)(F)F)ccc4F)cc3)cc2s1: 0.63
- FC(F)(F)CNc1nccc(-c2cnn3ncccc23)n1: -1.1
- CC1=C(C(=O)Nc2ccc3[nH]ncc3c2)C(c2ccc(F)cc2)N=C(c2ccc(C(F)(F)F)nc2)N1 (stereo not given): 2.62
- NS(=O)(=O)c1ccc(N/N=C2\C(=O)Nc3cccc(CCc4ccncc4)c32)cc1: 6.76
- CN(c1ccc(NC(=O)NCCN2CCOCC2)cc1)c1ccnc(Nc2ccc(CS(C)(=O)=O)cc2)n1: 0.31
- CNC(=O)c1cncc(/C=C/c2ccccc2C)c1: 2.42
- CCn1c(-c2nonc2N)nc2cncc(C(=O)NCCNC)c21: 1.56
- COc1ccc2ncn(-c3cc(O[C@H](C)c4ccccc4C(F)(F)F)c(C(N)=O)s3)c2c1: 0.59

* * *

Here the recorded inhibition is given for each entry.
Molecular target: Tyrosine-protein kinase JAK3 (Homo sapiens) (UniProt P52333);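 note: values reported are mean percent inhibition of JAK3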
Sequence (P52333 whole entry): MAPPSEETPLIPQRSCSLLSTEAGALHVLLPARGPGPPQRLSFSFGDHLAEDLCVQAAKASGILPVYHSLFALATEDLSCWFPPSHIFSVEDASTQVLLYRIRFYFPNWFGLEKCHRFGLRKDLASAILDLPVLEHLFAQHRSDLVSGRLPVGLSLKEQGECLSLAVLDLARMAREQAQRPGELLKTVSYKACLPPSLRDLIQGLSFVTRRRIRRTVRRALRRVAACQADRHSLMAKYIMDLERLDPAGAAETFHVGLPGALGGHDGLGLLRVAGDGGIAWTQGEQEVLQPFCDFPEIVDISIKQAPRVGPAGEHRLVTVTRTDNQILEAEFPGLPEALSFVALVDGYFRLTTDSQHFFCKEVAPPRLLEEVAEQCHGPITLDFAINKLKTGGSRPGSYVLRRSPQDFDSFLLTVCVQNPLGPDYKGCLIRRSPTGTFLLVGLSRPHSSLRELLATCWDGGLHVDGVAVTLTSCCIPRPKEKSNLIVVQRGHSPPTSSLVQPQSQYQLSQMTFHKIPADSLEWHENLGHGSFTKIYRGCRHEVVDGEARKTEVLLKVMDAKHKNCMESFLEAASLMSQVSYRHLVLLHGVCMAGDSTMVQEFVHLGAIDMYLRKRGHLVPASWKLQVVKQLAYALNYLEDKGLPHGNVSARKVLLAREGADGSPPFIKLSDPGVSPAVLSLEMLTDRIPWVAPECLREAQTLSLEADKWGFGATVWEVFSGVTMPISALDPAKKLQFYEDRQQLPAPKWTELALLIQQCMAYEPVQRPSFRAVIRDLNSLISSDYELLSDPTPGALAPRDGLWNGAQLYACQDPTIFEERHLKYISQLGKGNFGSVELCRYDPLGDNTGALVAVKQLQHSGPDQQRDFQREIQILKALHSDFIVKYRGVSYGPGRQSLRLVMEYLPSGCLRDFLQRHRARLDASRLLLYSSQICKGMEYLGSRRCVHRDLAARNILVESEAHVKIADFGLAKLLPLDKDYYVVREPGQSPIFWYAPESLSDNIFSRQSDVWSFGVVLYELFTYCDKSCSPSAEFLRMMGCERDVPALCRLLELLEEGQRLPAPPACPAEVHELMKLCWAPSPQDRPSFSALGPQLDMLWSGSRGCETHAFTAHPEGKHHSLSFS
Conditions: at 0.1 µM
QUANTITY MEASURED: inhibition (%)

* CS(=O)(=O)CCNCc1ccc(-c2ccc3ncnc(Nc4ccc(OCc5cccc(C(F)(F)F)c5)cc4)c3c2)o1 | -1.49
* COc1cc2c(cc1Nc1nc(Nc3cccc(F)c3C(N)=O)c3cc[nH]c3n1)N(C(=O)CN1CCN(C(C)C)CC1)CC2 | 0.64
* CC1=C(C(=O)Nc2ccc3[nH]ncc3c2)C(c2ccc(F)cc2)N=C(c2ccc(C(F)(F)F)nc2)N1 (stereo unspecified) | 0.58
* Cc1c2ccc(N(C)c3ccnc(Nc4cccc(S(N)(=O)=O)c4)n3)cc2nn1C | -4.75
* O=C(O[C@H]1CN[C@H](C#Cc2cc3ncnc(Nc4ccc5c(cnn5Cc5ccccc5)c4)c3s2)C1)N1CCOCC1 | -0.78
* CCS(=O)(=O)c1ccc(OC)c(Nc2ncc(-c3cccc(F)c3)o2)c1 | -1.97
* Cc1ccc(-c2cc3c(NC(=O)C4CC4)ncnc3o2)cc1 | -0.9
* CNC(=O)c1cncc(/C=C/c2ccccc2C)c1 | -0.66
* CCS(=O)(=O)c1ccc(OC)c(Nc2ncc(-c3cccc(C(C)=O)c3)o2)c1 | -1.13
* O=C1Nc2ccccc2/C1=C1\CCc2cc(O)ccc21 | -0.09
* COc1cc(Nc2ncc(-c3ccccc3)o2)cc(OC)c1 | -3.48

* * *

Target: Cytoplasmic tyrosine-protein kinase BMX (Homo sapiens) (UniProt P51813)
Sequence (whole entry): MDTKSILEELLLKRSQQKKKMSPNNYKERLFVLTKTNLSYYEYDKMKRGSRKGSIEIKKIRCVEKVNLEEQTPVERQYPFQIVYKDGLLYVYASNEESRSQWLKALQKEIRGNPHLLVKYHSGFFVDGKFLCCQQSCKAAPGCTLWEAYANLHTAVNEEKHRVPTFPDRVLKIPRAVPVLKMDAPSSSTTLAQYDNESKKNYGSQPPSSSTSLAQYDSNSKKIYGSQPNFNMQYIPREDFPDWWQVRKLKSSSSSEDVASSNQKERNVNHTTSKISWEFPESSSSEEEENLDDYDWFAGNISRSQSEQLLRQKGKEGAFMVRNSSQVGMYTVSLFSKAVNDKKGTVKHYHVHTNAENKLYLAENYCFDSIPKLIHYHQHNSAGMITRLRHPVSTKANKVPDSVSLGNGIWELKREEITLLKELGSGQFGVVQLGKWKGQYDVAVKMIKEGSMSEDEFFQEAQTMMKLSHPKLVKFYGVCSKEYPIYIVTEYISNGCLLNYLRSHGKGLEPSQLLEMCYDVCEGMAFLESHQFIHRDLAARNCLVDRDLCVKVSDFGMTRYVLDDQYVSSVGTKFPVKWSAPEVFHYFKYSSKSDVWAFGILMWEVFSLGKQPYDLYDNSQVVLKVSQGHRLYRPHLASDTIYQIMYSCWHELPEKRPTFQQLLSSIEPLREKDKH
Conditions: at 0.1 µM
Description: GSK_PKIS: BMX mean inhibition at 0.1 uM [Nanosyn]
Here the recorded inhibition is given for each entry.
QUANTITY MEASURED: inhibition (%)

• O=C(O[C@H]1CN[C@H](C#Cc2cc3ncnc(Nc4ccc(OCc5cccc(F)c5)c(Cl)c4)c3s2)C1)N1CCOCC1 = -1.21
• Cn1c(-c2nonc2N)nc2cnccc21 = 9.58
• CCS(=O)(=O)c1ccc(OC)c(Nc2ncc(-c3cccc(C(C)=O)c3)o2)c1 = -2.05
• O=C1Nc2ccccc2/C1=C1\CCc2cc(O)ccc21 = 0.61
• COc1cc(Nc2ncc(-c3ccccc3)o2)cc(OC)c1 = 3.71
• Fc1ccc(Nc2nccc(-c3c(-c4ccc(C(F)(F)F)cc4)nn4ncccc34)n2)cc1F = 0.77
• COC(=O)Nc1nc2cc(Oc3ccc(NC(=O)Nc4ccccc4)cc3)ccc2[nH]1 = 3.17
• CS(=O)(=O)CCNCc1ccoc1-c1ccc2ncnc(Nc3ccc(OCc4ccccc4)cc3)c2c1 = 1.55
• NS(=O)(=O)c1ccc(N/N=C2\C(=O)Nc3cccc(CCc4ccncc4)c32)cc1 = 3.67
• CCN1CCC(C(=O)Nc2n[nH]c3nnc(-c4cccc(F)c4F)cc23)CC1 = -0.1
• CS(=O)(=O)Nc1ccc(-c2ccc3c(NC(=O)C4CC4)n[nH]c3c2)cc1 = -5.43
• NS(=O)(=O)c1cccc(N/C=C2\C(=O)Nc3ccccc32)c1 = 2.23
• COc1ccc(Nc2ncc(-c3ccccc3)o2)cc1OC = -7.7
• CCn1c(-c2nonc2N)nc2cncc(C(=O)NCCNC)c21 = 3.81
• O=C(O[C@H]1CN[C@H](C#Cc2cc3ncnc(Nc4ccc5c(ccn5Cc5cc(F)ccc5F)c4)c3s2)C1)N1CCOCC1 = 4.47
• Cc1ccc(-c2cc3c(NC(=O)C4CC4)ncnc3o2)cc1 = -1.26
• O=C(O[C@H]1CN[C@H](C#Cc2cc3ncnc(Nc4ccc5c(cnn5Cc5ccccc5)c4)c3s2)C1)N1CCOCC1 = -1.03
• c1ccc(-c2n[nH]cc2-c2ccnc(-c3ccc(OCCn4ccnc4)cc3)c2)nc1 = -0.48
• CCS(=O)(=O)c1ccc(OC)c(Nc2ncc(-c3cccc(F)c3)o2)c1 = 1.13
• OCCCNc1nccc(-c2c(-c3ccc(F)cc3)nn3cc(C(F)(F)F)ccc23)n1 = 5.93
• CN1CCC(n2cnc(-c3ccc(F)cc3)c2-c2ccnc(NCCO)n2)CC1 = -6.22
